- System: Sonic hedgehog protein (Shh)
- MEASUREMENT_PROTOCOL: small-molecule binders of Shh protein, primary screen, biochemical, small-molecule microarray, 635/667 nm fluorescence (AID 1151);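 further: Shh protein binding to compounds spotted on small-molecule microarray slides; score combines spot fluorescence intensity with signal-to-noise across triplicate slides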
- COND: small-molecule microarray binding, 635 nm fluorescence; higher = more signal
Measured composite z-score, listed per entry for reference.
OUTCOME_MEASURE: composite z-score

>>> experimental_result("CN1C(=O)C2C=CC(C(O)c3ccc(N(C)C)cc3)N(Nc3ccc([N+](=O)[O-])cc3[N+](=O)[O-])C2C1=O (stereo unspecified)")
0.262
>>> experimental_result("Cc1ccc(N2C(=O)c3ccccc3[C@](C)(C(=O)NCC(C)C)[C@@H]2c2ccc(CO)cc2)nc1")
-0.656
>>> experimental_result("COCCOC(=O)N1C(=O)[C@@]2(c3cc(C#CCCO)ccc31)[C@H](c1ccc(OCCO)cc1)N1[C@H](c3ccccc3)[C@H](c3ccccc3)OC(=O)[C@H]1[C@@H]2C(=O)NC[C@H](O)c1ccccc1")
1.7
>>> experimental_result("CO[C@H]1COC(=O)CC=C[C@H](C)[C@@H](OC)COC(=O)[C@H](Cc2ccccc2)NC(=O)CC=C[C@@H]1C")
2.05
>>> experimental_result("COCCOC(=O)N1C(=O)[C@@]2(c3cc(C#CC4=CCCCC4)ccc31)[C@H](c1ccc(O)cc1)N1[C@H](c3ccccc3)[C@H](c3ccccc3)OC(=O)[C@H]1[C@@H]2C(=O)N1CCCCCCC1")
1.76
>>> experimental_result("NC(=O)[C@H]1[C@@H]2C(=O)O[C@@H](c3ccccc3)[C@@H](c3ccccc3)N2[C@@H](c2ccc(O)cc2)[C@]12C(=O)Nc1ccc(C#CCCO)cc12")
0.35
>>> experimental_result("C/C(=N\\O)C(=O)NCCCCCNC(=O)OCc1ccccc1")
0.371
>>> experimental_result("C=CCNC(=O)[C@H]1[C@@H]2C(=O)O[C@@H](c3ccccc3)[C@@H](c3ccccc3)N2[C@@H](c2ccc(O)cc2)[C@]12C(=O)Nc1ccc(C#CCNC(N)=O)cc12")
0.103
>>> experimental_result("CC(=O)NCCCC[C@@H]1NC(=O)[C@@H]2C[C@H](C(=O)NCCCCCNC(=O)CS)[C@H](c3ccc(O)cc3)N2C1=O")
1.49
>>> experimental_result("Cc1ccc([C@@H]2CC=C(C(=O)O)[C@H](c3ccccc3)N2S(=O)(=O)c2ccc(C)cc2)cc1")
0.157
>>> experimental_result("C[C@H]1COC(=O)[C@@H]2CCCN2C(=O)[C@@H](C)COC(=O)[C@@H]2CCCN2C1=O")
0.355

---

- MEASUREMENT_PROTOCOL: anti-His antibody binders, primary screen, artefact control for SMM control protein annotation, biochemical, small-molecule microarray, 635 nm fluorescence (AID 1128);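 further: score merges feature fluorescence with signal-to-noise for each printed compound spot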
- COND: anti-His Alexa647 antibody binding, higher = more signal
Measured composite z-score, listed per entry for reference.
OUTCOME_MEASURE: composite z-score

>>> experimental_result("O=C1c2ccccc2[C@](Cc2ccccc2I)(C(=O)NCC(F)(F)F)[C@H](c2ccc(CO)cc2)N1Cc1ccccc1C(F)(F)F")
0.722
>>> experimental_result("CO[C@H]1O[C@H](CO)[C@@H](OC(=O)CCc2ccccc2)[C@@H]2OC(=O)[C@H](Cc3cccc(Br)c3)C/C=C/C[C@@H](Cc3cccc(Br)c3)C(=O)O[C@@H]12")
0.345
>>> experimental_result("COCCOC(=O)N1C(=O)[C@@]2(c3cc(C#CCC(C(=O)OC)C(=O)OC)ccc31)[C@H](c1ccccc1OCCO)N1[C@H](c3ccccc3)[C@H](c3ccccc3)OC(=O)[C@H]1[C@@H]2C(=O)N1CCCCCCC1")
1.75
>>> experimental_result("Cc1ccc(S(=O)(=O)N2[C@@H](c3ccccc3)C(C(=O)O)=CC[C@H]2c2ccccc2)cc1")
-0.247
